Test target: Sortase A (Staphylococcus aureus, UniProt Q9S446)
Sequence (Q9S446 whole entry): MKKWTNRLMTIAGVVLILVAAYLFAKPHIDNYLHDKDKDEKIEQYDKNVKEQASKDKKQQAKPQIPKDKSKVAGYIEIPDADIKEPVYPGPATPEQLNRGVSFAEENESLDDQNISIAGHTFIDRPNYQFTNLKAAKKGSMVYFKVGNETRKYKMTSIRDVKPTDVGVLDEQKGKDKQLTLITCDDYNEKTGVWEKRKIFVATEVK
pIC50: −log10 of the molar value.
Recorded pIC50 values for a group of molecules are listed next.

| Molecule | Property label | Result |
| --- | --- | --- |
| CCCCCC1NCCc2c1[nH]c1ccccc21 (stereo not drawn) | pIC50 | < 3.38 |

Kindly review the next molecule as well.
The value of pIC50 measured for the molecule O=C1NCCc2c1[nH]c1ccc(O)cc21 turned out to be < 3.31

====

Test target: Sortase A (Staphylococcus aureus)
Sequence (Q9S446 whole entry): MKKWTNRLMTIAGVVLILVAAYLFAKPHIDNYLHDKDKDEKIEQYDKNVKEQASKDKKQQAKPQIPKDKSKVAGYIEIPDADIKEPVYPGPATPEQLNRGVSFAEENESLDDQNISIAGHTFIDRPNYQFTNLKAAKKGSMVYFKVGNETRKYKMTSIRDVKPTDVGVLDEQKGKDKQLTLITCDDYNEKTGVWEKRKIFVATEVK
pIC50: −log10 of the molar value.
Property label: pIC50

| Molecule | Property label | Result |
| --- | --- | --- |
| O=C(CO)c1c[nH]c2ccc(O)cc12 [HYRTIOSIN A] | pIC50 | < 3.28 |
| COc1ccc(C2NCCc3c2[nH]c2ccccc32)cc1 (stereo not given) | pIC50 | < 3.44 |
| Oc1ccc2[nH]c3c(c2c1)CCNC3c1ccccc1 (stereo not given) | pIC50 | 3.97 |
| O=C(Nc1ccccc1)C(=O)c1c[nH]c2ccc(O)cc12 | pIC50 | < 3.45 |
| COc1ccc2[nH]c3c(c2c1)CCNC3C(=O)O (stereo not given) | pIC50 | < 3.39 |

# pIC50 (molecule: c1ccc(C2NCCc3c2[nH]c2ccccc32)cc1 (stereo not given) ) is < 3.40

Record COc1ccc2[nH]cc(C(=O)C(=O)Nc3ccccc3)c2c1 , field pIC50: < 3.47

The reported value for COc1ccc2[nH]c3c(c2c1)CCNC3c1ccccc1 (stereo not given) in terms of pIC50 is 3.94

Sample Cc1[nH]c2ccccc2c1C(=O)C(=O)O ; pIC50 observed: 3.88

Please fill in: pIC50 reported for O=C(O)C1NCCc2c1[nH]c1ccc(O)cc21 (stereo not given) = < 3.37

====

Tested on: Proteus vulgaris
Method: Antimicrobial activity against Proteus vulgaris ATCC 3851
Type: functional
Property label: MIC (µg/mL)
Write it as a number; the unit µg/mL goes unstated.

Below are worked cases with known answers.
| Compound | Numeric value |
| --- | --- |
| CC1(C)S[C@@H]2[C@H](NC(=O)[C@H](N)c3ccccc3)C(=O)N2[C@H]1C(=O)O [AMPICILLIN] | 0.78 |
| COc1ccc(C2NCCc3c2[nH]c2ccccc32)cc1 (configuration not stated) | 6.25 |
| COc1cccc(C2NCCc3c2[nH]c2ccccc32)c1 (configuration not stated) | 12.5 |
| Oc1ccc2[nH]c3c(c2c1)CCNC3c1ccccc1 (configuration not stated) | 100 |

Could you now look at the following compound, please?
Data point: c1ccc2cc(C3NCCc4c3[nH]c3ccccc43)ccc2c1 (configuration not stated) ; MIC = 6.25
